- measurement.target: Glucocorticoid receptor (Homo sapiens, UniProt P04150)
- Sequence (P04150 whole entry): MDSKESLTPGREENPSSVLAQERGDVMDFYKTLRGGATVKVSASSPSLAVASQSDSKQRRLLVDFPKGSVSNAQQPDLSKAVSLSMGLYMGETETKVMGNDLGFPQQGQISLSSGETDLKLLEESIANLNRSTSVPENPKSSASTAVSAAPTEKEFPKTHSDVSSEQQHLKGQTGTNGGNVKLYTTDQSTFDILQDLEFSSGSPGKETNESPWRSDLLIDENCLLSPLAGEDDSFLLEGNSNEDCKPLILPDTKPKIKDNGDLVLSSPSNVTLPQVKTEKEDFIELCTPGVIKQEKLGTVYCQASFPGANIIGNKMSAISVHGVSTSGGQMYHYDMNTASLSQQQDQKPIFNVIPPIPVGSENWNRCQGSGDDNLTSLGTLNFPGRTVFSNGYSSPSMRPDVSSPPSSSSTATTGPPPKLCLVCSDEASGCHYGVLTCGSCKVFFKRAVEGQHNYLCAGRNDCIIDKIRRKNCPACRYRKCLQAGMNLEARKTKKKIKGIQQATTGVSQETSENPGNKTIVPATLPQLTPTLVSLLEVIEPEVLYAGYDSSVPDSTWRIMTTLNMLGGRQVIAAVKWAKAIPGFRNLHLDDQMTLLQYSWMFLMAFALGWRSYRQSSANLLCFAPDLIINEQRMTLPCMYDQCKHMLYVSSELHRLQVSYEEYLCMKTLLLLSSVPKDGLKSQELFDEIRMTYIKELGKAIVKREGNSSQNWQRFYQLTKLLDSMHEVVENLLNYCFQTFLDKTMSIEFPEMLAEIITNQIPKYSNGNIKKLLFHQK
- Assay type: cell-based, NHDF
- Description: Transrepression activity at GR expressed in NHDF cells assessed as IL-1beta-mediated IL-6 transcription by ELISA
pIC50: −log10 of the molar value.
Entries and their pIC50

Below, each entry is followed by its recorded pIC50 result.
C[C@H]1c2c(cc(F)c(-c3cccc4cc[nH]c34)c2F)NC(C)(C)[C@@H]1OC(=O)Nc1ccccc1 ... < 6.00
C[C@H]1c2c(cc(F)c(-c3cccc4cc[nH]c34)c2F)NC(C)(C)[C@@H]1OC(=O)N(C)c1ccccc1 ... < 6.00

As a next step, examine the molecule that follows.
**Q:** Item CNC(=O)O[C@@H]1[C@@H](C)c2c(cc(F)c(-c3cccc4cc[nH]c34)c2F)NC1(C)C (racemic) has what recorded pIC50?
**A:** < 6.00

---

- measurement.target: Glucocorticoid receptor (Homo sapiens)
- Type: cell-based, NHDF
pIC50: −log10 of the molar value.
experimental.readout: pIC50

Completed entries (count: 2):
COc1ccc(NC(=O)O[C@@H]2[C@@H](C)c3c(cc(F)c(-c4cccc5cc[nH]c45)c3F)NC2(C)C)cc1Cl ... 7.51
C[C@H]1c2c(cc(F)c(-c3cccc4cc[nH]c34)c2F)NC(C)(C)[C@@H]1OC(=O)Nc1ccc2c(c1)OCO2 ... 7.30

P = COc1ccc(NC(=O)O[C@@H]2[C@@H](C)c3c(cc(F)c(-c4cccc5c(Cl)c[nH]c45)c3F)NC2(C)C)cc1Cl
Q = C[C@H]1c2c(cc(F)c(-c3cccc4c(Cl)c[nH]c34)c2F)NC(C)(C)[C@@H]1OC(=O)NCc1ccccc1 (racemic)
**Q:** Rank P against Q by their pIC50 values and give the higher one. Selection: enter the item's label.
**A:** P

P = COC(=O)c1ccc(NC(=O)O[C@@H]2[C@@H](C)c3c(cc(F)c(-c4cccc5cc[nH]c45)c3F)NC2(C)C)cc1
Q = CNC(=O)O[C@@H]1[C@@H](C)c2c(cc(F)c(-c3cccc4c(Cl)c[nH]c34)c2F)NC1(C)C (racemic)
R = C[C@H]1c2c(cc(F)c(-c3cccc4c(Cl)c[nH]c34)c2F)NC(C)(C)[C@@H]1OC(=O)Nc1ccc(C#N)cc1
**Q:** Ordering: ascending pIC50. Please write the labels in the order that was asked for.
**A:** Q, P, R

---

- measurement.target: Glucocorticoid receptor (Homo sapiens, UniProt P04150)
- Assay type: functional, cell-based, CV-1
- Description: Agonist activity at GR expressed in african green monkey CV1 cells transfected with luciferase gene linked to MMTV promoter assessed as induction of luciferase transactivation activity
experimental.readout: EC50 (nM)

Solved entries (count: 5):
CC(=O)c1cccc(NC(=O)O[C@@H]2[C@@H](C)c3c(cc(F)c(-c4cccc5cc[nH]c45)c3F)NC2(C)C)c1 (racemic) ... 29
CNC(=O)O[C@@H]1[C@@H](C)c2c(cc(F)c(-c3cccc4c(Cl)c[nH]c34)c2F)NC1(C)C (racemic) ... 21
C[C@H]1c2c(cc(F)c(-c3cccc4cc[nH]c34)c2F)NC(C)(C)[C@@H]1OC(=O)Nc1ccc(N(C)C)cc1 ... 3.5
C[C@H]1c2c(cc(F)c(-c3cccc4cc[nH]c34)c2F)NC(C)(C)[C@@H]1OC(=O)Nc1ccc2c(c1)OCO2 ... 18
C[C@H]1c2c(cc(F)c(-c3cccc4cc[nH]c34)c2F)NC(C)(C)[C@@H]1OC(=O)Nc1ccc(C#N)cc1 ... 21

a = COC(=O)c1ccc(NC(=O)O[C@@H]2[C@@H](C)c3c(cc(F)c(-c4cccc5cc[nH]c45)c3F)NC2(C)C)cc1
b = C[C@H]1c2c(cc(F)c(-c3cccc4cc[nH]c34)c2F)NC(C)(C)[C@@H]1OC(=O)Nc1ccc(Cl)cc1
c = C[C@H]1c2c(cc(F)c(-c3cccc4c(Cl)c[nH]c34)c2F)NC(C)(C)[C@@H]1OC(=O)NC1CCCCC1 (racemic)
d = C[C@H]1c2c(cc(F)c(-c3cccc4c(Cl)c[nH]c34)c2F)NC(C)(C)[C@@H]1OC(=O)Nc1ccccc1
**Q:** Which order do these items take when sorted by rising EC50? List them. Please list the labels in the order you were asked to rank them.
**A:** d, a, c, b

---

- measurement.target: Glucocorticoid receptor (Homo sapiens)
- Assay type: functional, cell-based, CV-1
pEC50: −log10 of the molar value.
experimental.readout: pEC50

Example results:
CNC(=O)O[C@@H]1[C@@H](C)c2c(cc(F)c(-c3cccc4cc[nH]c34)c2F)NC1(C)C (racemic) ... 7.41
COc1ccc(NC(=O)O[C@@H]2[C@@H](C)c3c(cc(F)c(-c4cccc5c(Cl)c[nH]c45)c3F)NC2(C)C)cc1Cl ... 8.24
CC(=O)c1ccc(NC(=O)O[C@@H]2[C@@H](C)c3c(cc(F)c(-c4cccc5cc[nH]c45)c3F)NC2(C)C)cc1 (racemic) ... 7.80
C[C@H]1c2c(cc(F)c(-c3cccc4cc[nH]c34)c2F)NC(C)(C)[C@@H]1OC(=O)Nc1ccccc1 ... 6.98
C[C@H]1c2c(cc(F)c(-c3cccc4c(Cl)c[nH]c34)c2F)NC(C)(C)[C@@H]1OC(=O)NCc1ccccc1 (racemic) ... 7.77

a = CC(C)NC(=O)O[C@@H]1[C@@H](C)c2c(cc(F)c(-c3cccc4c(Cl)c[nH]c34)c2F)NC1(C)C (racemic)
b = COc1ccc(NC(=O)O[C@@H]2[C@@H](C)c3c(cc(F)c(-c4cccc5cc[nH]c45)c3F)NC2(C)C)cc1Cl
c = C[C@H]1c2c(cc(F)c(-c3cccc4cc[nH]c34)c2F)NC(C)(C)[C@@H]1OC(=O)Nc1cccc(C#N)c1 (racemic)
**Q:** Your job: order these 3 records by pEC50, ascending. To answer, arrange all of the labels according to the requested order.
**A:** a, c, b
